Data origin, for the record: PubChem BioAssay AID180

Tested on: BDF1 mice, Adenocarcinoma 755 s.c., tumor weight T/C
assay.notes: NCI In Vivo Anticancer Drug Screen. Data for tumor model Adenocarcinoma 755 (subcutaneous) in B6D2F1 (BDF1) mice
test.context: endpoint: mean tumor weight; dose: 125.0 mg/kg/injection; schedule: Q01DX011 (ip); vehicle: carboxymethylcellulose (CMC); higher = larger tumour
Consider the following compounds; for each one, report its T/C.

Prompt: Given CCCCSc1ncnc2c1ncn2C1CCCCO1 (stereo not given) , state its recorded T/C.
Completion: 9 % of control

Prompt: Given `CCCCCn1cnc2c(=S)nc[nH]c21` , state its recorded T/C.
Completion: 43 % of control

Prompt: Given O=C1NC(=O)C(c2ccc(Cl)cc2)(c2ccccc2Cl)N1 (stereo not given) , state its recorded T/C.
Completion: 81 % of control

Prompt: Given `NC(=O)CSc1nc(N)nc2nc[nH]c12` , state its recorded T/C.
Completion: 67 % of control

Prompt: Given `S=c1nc[nH]c2c1ncn2C1CCCCC1` , state its recorded T/C.
Completion: 118 % of control

Prompt: Given `CCCCn1nnc2c(Nc3ccc(Cl)cc3)nc(N)nc21` , state its recorded T/C.
Completion: 89 % of control

Prompt: Given `Nc1nc(SCCc2ccccc2)c2[nH]cnc2n1` , state its recorded T/C.
Completion: 19 % of control

Prompt: Given `c1ccn(-c2nc(-n3cccc3)nc(-n3cccc3)n2)c1` , state its recorded T/C.
Completion: 73 % of control

Prompt: Given `NC(=O)NO` , state its recorded T/C.
Completion: 44 % of control

Prompt: Given CC1CC(C)C(=O)C(C(=O)CC2CC(=O)NC(=O)C2)C1 (stereo not given) , state its recorded T/C.
Completion: 67 % of control
